- targetOfAssay: Ba/F3 stable cells (Homo sapiens, UniProt P00533, T790M/L858R, cells depend on it)
- Construct: EC50 Ba/F3-EGFR L858R-T790M; other: Ba/F3-EGFR L858R-T790M cells, 72 h, CCK-8
- procedureDetails: EC50 assay: Ba/F3 stable cell proliferation (CCK-8, 72 h)
- Assay type: cell-based
- settings: Ba/F3-EGFR L858R-T790M cells
compounds and their reported EC50

>  <compound>
C=CC(=O)N[C@H]1C[C@H](Oc2cc3c(Nc4ccccc4F)ncnc3cc2OC)C1

>  <targetOfAssay>
Ba/F3 stable cells (Homo sapiens, UniProt P00533, T790M/L858R, cells depend on it)

>  <EC50>
> 1000 nM

$$$$
>  <compound>
C=CC(=O)N[C@H]1C[C@@H](Oc2cc3c(Nc4cccc5ccccc45)ncnc3cc2OC)C1

>  <targetOfAssay>
Ba/F3 stable cells (Homo sapiens, UniProt P00533, T790M/L858R, cells depend on it)

>  <EC50>
200 to 1000 nM

$$$$
>  <compound>
C=CC(=O)N1CCC(Oc2c(OC)cc3ncnc4c3c2NC(=O)N4c2ccc(Cl)c(Cl)c2F)C1 (stereo not shown)

>  <targetOfAssay>
Ba/F3 stable cells (Homo sapiens, UniProt P00533, T790M/L858R, cells depend on it)

>  <EC50>
> 1000 nM

$$$$

The recorded EC50 for entry C#CC(=O)N1C2CCC1CC(Oc1cc3c(Nc4ccc5ccccc5c4)ncnc3cc1OC)C2 (stereo not shown) equals ≤ 200 nM

* * *

- targetOfAssay: Ba/F3 stable cells (Homo sapiens, UniProt P00533, DUP771-773, cells depend on it)
- Construct: EC50 Ba/F3-EGFR H773-V774insNPH; other: Ba/F3-EGFR H773-V774insNPH cells, 72 h, CCK-8
- Sequence (P00533 with tags, fused parts or gaps DUP771-773): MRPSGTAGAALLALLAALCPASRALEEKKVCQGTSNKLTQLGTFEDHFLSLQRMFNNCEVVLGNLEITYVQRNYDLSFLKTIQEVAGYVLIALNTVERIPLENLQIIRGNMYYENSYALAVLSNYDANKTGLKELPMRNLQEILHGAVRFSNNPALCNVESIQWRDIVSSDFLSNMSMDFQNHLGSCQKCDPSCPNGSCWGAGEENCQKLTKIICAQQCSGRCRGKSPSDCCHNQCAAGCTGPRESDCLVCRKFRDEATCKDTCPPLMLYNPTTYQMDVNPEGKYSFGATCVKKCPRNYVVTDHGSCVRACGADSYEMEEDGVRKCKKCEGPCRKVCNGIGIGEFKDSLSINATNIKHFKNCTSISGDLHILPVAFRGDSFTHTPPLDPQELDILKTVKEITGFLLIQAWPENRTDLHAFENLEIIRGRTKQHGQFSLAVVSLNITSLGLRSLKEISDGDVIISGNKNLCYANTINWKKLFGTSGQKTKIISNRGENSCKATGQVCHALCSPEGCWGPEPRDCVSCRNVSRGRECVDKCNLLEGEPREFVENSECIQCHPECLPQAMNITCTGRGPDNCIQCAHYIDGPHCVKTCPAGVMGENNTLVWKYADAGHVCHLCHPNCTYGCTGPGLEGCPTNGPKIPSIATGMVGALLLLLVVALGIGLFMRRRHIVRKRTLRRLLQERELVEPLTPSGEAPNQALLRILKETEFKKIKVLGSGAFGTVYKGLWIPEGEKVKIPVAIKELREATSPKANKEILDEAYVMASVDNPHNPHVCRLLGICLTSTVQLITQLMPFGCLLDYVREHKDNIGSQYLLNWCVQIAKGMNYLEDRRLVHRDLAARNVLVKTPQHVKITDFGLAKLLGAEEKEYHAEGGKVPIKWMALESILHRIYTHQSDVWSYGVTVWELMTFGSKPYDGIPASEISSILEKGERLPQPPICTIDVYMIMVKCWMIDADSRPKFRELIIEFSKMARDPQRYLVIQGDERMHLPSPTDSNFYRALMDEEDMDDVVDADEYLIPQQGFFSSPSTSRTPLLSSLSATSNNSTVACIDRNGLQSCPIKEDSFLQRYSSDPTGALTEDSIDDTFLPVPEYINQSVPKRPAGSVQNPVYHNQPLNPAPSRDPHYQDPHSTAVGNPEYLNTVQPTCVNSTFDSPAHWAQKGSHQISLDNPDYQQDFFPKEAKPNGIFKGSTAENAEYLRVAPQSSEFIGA
- procedureDetails: EC50 assay: Ba/F3 stable cell proliferation (CCK-8, 72 h)
- settings: Ba/F3-EGFR H773-V774insNPH cells
measuredQuantity: EC50

Examples from the recorded data:
>  <compound>
CC#CC(=O)NC1CC(Oc2cc3c(Nc4ccc(Cl)c(Cl)c4F)ncnc3cc2OC)C1 (centres unmarked)

>  <targetOfAssay>
Ba/F3 stable cells (Homo sapiens, UniProt P00533, DUP771-773, cells depend on it)

>  <EC50>
> 1000 nM

$$$$
>  <compound>
C=CC(=O)N1CCC(Oc2cc3c(NCc4ccc(Cl)c(F)c4)ncnc3cc2OC)CC1

>  <targetOfAssay>
Ba/F3 stable cells (Homo sapiens, UniProt P00533, DUP771-773, cells depend on it)

>  <EC50>
200 to 1000 nM

$$$$
>  <compound>
C=CC(=O)N1CC(c2cc3c(Nc4ccc5c(c4)CCN5)ncnc3cc2OC)C1

>  <targetOfAssay>
Ba/F3 stable cells (Homo sapiens, UniProt P00533, DUP771-773, cells depend on it)

>  <EC50>
> 1000 nM

$$$$

The recorded EC50 for entry C=CC(=O)N[C@H]1C[C@@H](Oc2cc3c(Nc4ccc(Cl)c(Cl)c4F)ncnc3cc2O[C@H]2CCOC2)C1 equals ≤ 200 nM

The recorded EC50 for entry C=CC(=O)N1CCC(Oc2cc3c(Nc4nccc5ccccc45)ncnc3cc2OC)CC1 equals 200 to 1000 nM

The recorded EC50 for entry C=CC(=O)N1CC(c2cc3c(Nc4ccc(Cl)c(Cl)c4F)ncnc3cc2OC2COC2)C1 equals ≤ 200 nM

The recorded EC50 for entry C=CC(=O)N1C2CCCC1CC(Oc1cc3c(Nc4cccc5c4CCC5)ncnc3cc1OC)C2 (centres unmarked) equals 200 to 1000 nM

The recorded EC50 for entry C=CC(=O)N1CC(c2cc3c(NCc4ccc(F)cc4)ncnc3cc2OC)C1 equals 200 to 1000 nM

* * *

- targetOfAssay: Ba/F3 stable cells (Homo sapiens, UniProt P00533, DUP767-769, cells depend on it)
- Construct: EC50 Ba/F3-EGFR V769-D770insASV; other: Ba/F3-EGFR V769-D770insASV cells, 72 h, CCK-8
- Sequence (P00533 with tags, fused parts or gaps DUP767-769): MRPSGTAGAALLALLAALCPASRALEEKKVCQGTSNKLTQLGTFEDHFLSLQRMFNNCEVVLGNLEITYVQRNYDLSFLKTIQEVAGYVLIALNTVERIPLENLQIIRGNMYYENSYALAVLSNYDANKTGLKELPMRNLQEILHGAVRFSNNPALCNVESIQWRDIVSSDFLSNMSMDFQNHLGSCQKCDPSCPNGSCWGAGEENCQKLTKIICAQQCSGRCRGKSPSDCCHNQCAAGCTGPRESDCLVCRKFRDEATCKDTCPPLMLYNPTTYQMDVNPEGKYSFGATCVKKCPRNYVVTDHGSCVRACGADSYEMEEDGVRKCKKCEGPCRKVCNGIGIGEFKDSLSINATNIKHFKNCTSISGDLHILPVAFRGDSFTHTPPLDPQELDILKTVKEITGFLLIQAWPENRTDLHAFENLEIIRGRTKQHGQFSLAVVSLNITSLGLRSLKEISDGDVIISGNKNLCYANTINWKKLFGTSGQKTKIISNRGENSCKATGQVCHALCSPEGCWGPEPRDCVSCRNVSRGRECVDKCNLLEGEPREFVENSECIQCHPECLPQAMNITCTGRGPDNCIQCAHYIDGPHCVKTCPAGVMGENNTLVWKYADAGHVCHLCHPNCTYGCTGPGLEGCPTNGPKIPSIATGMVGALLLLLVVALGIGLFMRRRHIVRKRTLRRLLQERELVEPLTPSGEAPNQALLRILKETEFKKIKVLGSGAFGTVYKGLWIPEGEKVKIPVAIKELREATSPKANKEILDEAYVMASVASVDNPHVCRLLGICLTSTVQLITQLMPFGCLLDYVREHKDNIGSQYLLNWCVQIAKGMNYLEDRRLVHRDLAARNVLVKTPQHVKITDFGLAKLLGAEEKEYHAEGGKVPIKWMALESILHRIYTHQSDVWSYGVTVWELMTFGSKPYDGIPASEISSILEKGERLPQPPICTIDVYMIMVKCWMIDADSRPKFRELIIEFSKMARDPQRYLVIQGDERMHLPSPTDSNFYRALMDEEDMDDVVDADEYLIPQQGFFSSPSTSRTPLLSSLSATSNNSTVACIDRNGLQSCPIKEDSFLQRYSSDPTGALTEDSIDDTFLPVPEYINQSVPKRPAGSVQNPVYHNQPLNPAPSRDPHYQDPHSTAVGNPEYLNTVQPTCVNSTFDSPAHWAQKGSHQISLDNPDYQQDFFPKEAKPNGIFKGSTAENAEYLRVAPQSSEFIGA
- procedureDetails: EC50 assay: Ba/F3 stable cell proliferation (CCK-8, 72 h)
- settings: Ba/F3-EGFR V769-D770insASV cells
molecules and their reported EC50

Examples from the recorded data:
>  <molecule>
C=C(F)C(=O)N1CC(c2cc3c(Nc4ccc(Cl)c(Cl)c4F)ncnc3cc2O[C@H]2CCOC2)C1

>  <reading>
≤ 200 nM

$$$$
>  <molecule>
C=CC(=O)NC1CC(Oc2cc3c(Nc4cccc5ccccc45)ncnc3cc2OC)C1 (centres unmarked)

>  <reading>
≤ 200 nM

$$$$
>  <molecule>
C=CC(=O)N1CCC(Oc2cc3c(Nc4ccc5c(c4)OCO5)ncnc3cc2OC)CC1

>  <reading>
200 to 1000 nM

$$$$
>  <molecule>
C=CC(=O)N1C2CCC1CC(Oc1cc3c(Nc4cccc5c4CCC5)ncnc3cc1OC)C2 (centres unmarked)

>  <reading>
≤ 200 nM

$$$$
>  <molecule>
C=CC(=O)NC1CC(Oc2cc3c(Nc4cccc5c4CCCC5)ncnc3cc2OC)C1 (centres unmarked)

>  <reading>
> 1000 nM

$$$$
>  <molecule>
C=CC(=O)N1CCC(Oc2cc3c(C(=O)N[C@H](C)c4ccc(F)cc4)ncnc3cc2OC)CC1

>  <reading>
> 1000 nM

$$$$
>  <molecule>
C=CC(=O)N1CC(c2cc3c(Nc4ccc(F)c5ccccc45)ncnc3cc2OC)C1

>  <reading>
≤ 200 nM

$$$$

Kindly consider the entry below.
EC50 on Ba/F3 stable cells (Homo sapiens, UniProt P00533, DUP767-769, cells depend on it) for C=CC(=O)N1CCC(Oc2cc3c(Nc4cccc5[nH]ccc45)ncnc3cc2OC)CC1 is 200 to 1000 nM

* * *

- targetOfAssay: Ba/F3 stable cells (Homo sapiens, UniProt P00533, DUP768-770, cells depend on it)
- Construct: EC50 Ba/F3-EGFR D770-N771insSVD; other: Ba/F3-EGFR D770-N771insSVD cells, 72 h, CCK-8
- Sequence (P00533 with tags, fused parts or gaps DUP768-770): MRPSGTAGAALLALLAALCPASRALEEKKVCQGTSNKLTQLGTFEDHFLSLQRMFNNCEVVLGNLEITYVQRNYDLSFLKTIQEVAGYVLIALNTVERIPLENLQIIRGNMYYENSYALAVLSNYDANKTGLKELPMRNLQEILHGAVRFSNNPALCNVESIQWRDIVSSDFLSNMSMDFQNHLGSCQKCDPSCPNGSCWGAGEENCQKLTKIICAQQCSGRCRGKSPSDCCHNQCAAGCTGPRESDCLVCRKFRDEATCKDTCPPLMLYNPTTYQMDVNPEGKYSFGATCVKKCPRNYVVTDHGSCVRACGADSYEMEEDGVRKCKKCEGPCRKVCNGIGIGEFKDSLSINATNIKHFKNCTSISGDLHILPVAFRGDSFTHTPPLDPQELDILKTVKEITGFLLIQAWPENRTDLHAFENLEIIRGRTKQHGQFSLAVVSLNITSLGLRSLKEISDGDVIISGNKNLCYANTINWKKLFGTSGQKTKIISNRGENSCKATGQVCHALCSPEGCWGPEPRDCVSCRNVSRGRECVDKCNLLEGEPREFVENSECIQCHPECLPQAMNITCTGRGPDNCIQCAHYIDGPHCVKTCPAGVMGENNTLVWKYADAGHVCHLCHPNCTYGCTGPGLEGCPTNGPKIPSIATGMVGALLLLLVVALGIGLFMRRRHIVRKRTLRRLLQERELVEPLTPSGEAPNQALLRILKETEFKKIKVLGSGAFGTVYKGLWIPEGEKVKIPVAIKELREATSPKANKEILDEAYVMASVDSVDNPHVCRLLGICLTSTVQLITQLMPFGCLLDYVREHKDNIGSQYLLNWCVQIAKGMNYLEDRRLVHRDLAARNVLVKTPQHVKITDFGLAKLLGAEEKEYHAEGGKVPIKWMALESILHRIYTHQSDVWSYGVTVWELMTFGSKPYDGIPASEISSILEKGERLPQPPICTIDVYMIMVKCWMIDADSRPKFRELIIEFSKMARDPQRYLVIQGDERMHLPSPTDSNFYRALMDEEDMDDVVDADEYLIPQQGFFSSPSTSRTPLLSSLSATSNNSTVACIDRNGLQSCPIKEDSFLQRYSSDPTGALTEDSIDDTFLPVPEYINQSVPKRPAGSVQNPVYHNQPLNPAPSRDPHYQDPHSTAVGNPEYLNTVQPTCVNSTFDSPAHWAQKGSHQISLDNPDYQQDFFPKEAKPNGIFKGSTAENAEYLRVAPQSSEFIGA
- procedureDetails: EC50 assay: Ba/F3 stable cell proliferation (CCK-8, 72 h)
- settings: Ba/F3-EGFR D770-N771insSVD cells
compounds and their reported EC50

>  <compound>
C=CC(=O)N1CC(c2cc3c(Nc4ccc(F)c(Cl)c4)ncnc3cc2OC)C1 [Compound 6]

>  <reading>
200 to 1000 nM

$$$$

The recorded EC50 for entry C=CC(=O)N1CCC(c2ccc3ncnc(Nc4ccc(Cl)c(Cl)c4F)c3c2)CC1 [Compound 9] equals > 1000 nM

The recorded EC50 for entry C=CC(=O)NC1CC(Nc2cc3c(Nc4ccc(Cl)c(Cl)c4F)ncnc3cc2OC)C1 (centres unmarked) [Compound 92] equals 200 to 1000 nM

The recorded EC50 for entry C=CC(=O)N1C2CCC1CC(Oc1cc3c(Nc4cccc5ccccc45)ncnc3cc1OC)C2 (centres unmarked) [Compound 181] equals ≤ 200 nM

The recorded EC50 for entry C#CC(=O)N1C2CCC1CC(Oc1cc3c(Nc4cccc5ccccc45)ncnc3cc1OC)C2 (centres unmarked) [Compound 60] equals 200 to 1000 nM

The recorded EC50 for entry C=CC(=O)NC1CC(Oc2cc3c(Nc4cccc5ccccc45)ncnc3cc2OC)C1 (centres unmarked) [Compound 81] equals ≤ 200 nM

* * *

- targetOfAssay: Ba/F3 stable cells (Homo sapiens, UniProt P00533, DUP767-769, cells depend on it)
- Construct: EC50 Ba/F3-EGFR V769-D770insASV; other: Ba/F3-EGFR V769-D770insASV cells, 72 h, CCK-8
- procedureDetails: EC50 assay: Ba/F3 stable cell proliferation (CCK-8, 72 h)
- settings: Ba/F3-EGFR V769-D770insASV cells
measuredQuantity: EC50

>  <compound>
C=CC(=O)NC1CC(Oc2cc3c(Nc4ccc5ccccc5c4)ncnc3cc2OC)C1 (centres unmarked)

>  <measuredQuantity>
EC50

>  <reading>
> 1 µM

$$$$
>  <compound>
C=CC(=O)N1CC(c2ccc3ncnc(Nc4ccc(Cl)c(Cl)c4F)c3c2)C1

>  <measuredQuantity>
EC50

>  <reading>
0.2 to 1 µM

$$$$
>  <compound>
C=CC(=O)NC1CC(Oc2cc3c(Nc4ccc(C)c5c4CCC5)ncnc3cc2OC)C1 (centres unmarked)

>  <measuredQuantity>
EC50

>  <reading>
> 1 µM

$$$$

The recorded EC50 for entry C=CC(=O)NC1CC(Oc2cc3c(Nc4ccc(F)c5c4CCC5=O)ncnc3cc2OC)C1 (centres unmarked) equals > 1 µM

* * *

- targetOfAssay: Ba/F3 stable cells (Homo sapiens, UniProt P04626, DUP772-775, cells depend on it)
- Construct: EC50 Ba/F3-HER2 A775-G776insYVMA; other: Ba/F3-HER2 A775-G776insYVMA cells, 72 h, CCK-8
- Sequence (P04626 with tags, fused parts or gaps DUP772-775): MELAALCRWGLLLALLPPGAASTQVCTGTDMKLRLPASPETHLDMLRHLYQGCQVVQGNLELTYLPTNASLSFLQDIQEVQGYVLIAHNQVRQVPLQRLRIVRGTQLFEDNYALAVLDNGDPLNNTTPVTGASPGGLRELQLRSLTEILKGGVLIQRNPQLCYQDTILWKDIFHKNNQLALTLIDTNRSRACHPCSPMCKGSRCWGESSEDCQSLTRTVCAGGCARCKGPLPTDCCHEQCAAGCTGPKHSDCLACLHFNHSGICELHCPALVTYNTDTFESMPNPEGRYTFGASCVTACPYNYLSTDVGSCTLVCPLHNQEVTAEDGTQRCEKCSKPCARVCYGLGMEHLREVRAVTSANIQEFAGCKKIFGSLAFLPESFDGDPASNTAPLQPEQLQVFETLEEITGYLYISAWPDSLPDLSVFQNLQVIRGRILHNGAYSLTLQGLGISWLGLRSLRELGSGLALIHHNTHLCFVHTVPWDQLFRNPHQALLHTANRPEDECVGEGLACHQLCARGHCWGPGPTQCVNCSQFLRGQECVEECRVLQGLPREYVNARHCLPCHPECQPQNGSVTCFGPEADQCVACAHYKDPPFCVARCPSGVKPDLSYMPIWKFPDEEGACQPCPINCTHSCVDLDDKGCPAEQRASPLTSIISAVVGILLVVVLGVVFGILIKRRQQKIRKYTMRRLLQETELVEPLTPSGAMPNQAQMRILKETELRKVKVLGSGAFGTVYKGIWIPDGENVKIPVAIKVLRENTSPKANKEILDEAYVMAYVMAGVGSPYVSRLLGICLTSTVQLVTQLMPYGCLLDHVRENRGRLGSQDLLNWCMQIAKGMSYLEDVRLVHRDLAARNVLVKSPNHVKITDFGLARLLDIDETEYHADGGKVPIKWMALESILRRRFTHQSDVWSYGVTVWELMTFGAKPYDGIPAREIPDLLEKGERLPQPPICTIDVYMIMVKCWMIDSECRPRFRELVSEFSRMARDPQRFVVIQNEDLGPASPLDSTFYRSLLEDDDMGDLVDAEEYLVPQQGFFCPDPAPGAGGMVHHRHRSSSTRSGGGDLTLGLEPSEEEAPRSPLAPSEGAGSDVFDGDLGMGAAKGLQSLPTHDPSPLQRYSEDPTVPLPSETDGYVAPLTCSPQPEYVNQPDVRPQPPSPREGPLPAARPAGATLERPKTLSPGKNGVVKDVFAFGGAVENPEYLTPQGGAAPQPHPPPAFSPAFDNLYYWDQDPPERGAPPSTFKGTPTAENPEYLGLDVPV
- procedureDetails: EC50 assay: Ba/F3 stable cell proliferation (CCK-8, 72 h)
- settings: Ba/F3-HER2 A775-G776insYVMA cells
molecules and their reported EC50

Examples from the recorded data:
>  <molecule>
C=CC(=O)N1CC=C(c2c(OC)cc3ncnc4c3c2N(C)C(=O)N4c2ccc(Cl)c(Cl)c2F)CC1

>  <reading>
200 to 1000 nM

$$$$
>  <molecule>
CC#CC(=O)NC1CC(Oc2cc3c(Nc4ccc(Cl)c(Cl)c4F)ncnc3cc2OC)C1 (centres unmarked)

>  <reading>
200 to 1000 nM

$$$$

The recorded EC50 for entry C=CC(=O)N1C2CCC1CC(Oc1cc3c(Nc4cccc5ccccc45)ncnc3cc1OC)C2 (centres unmarked) equals ≤ 200 nM

The recorded EC50 for entry C=CC(=O)N1CC(c2cc3c(Nc4ccc(Cl)c(Cl)c4F)ncnc3cc2OCCN2CCOCC2)C1 equals 200 to 1000 nM

The recorded EC50 for entry C=CC(=O)N1CCC(Oc2cc3c(Nc4cc5oc6ccccc6c5cc4OC)ncnc3cc2OC)CC1 equals > 1000 nM

The recorded EC50 for entry C#CC(=O)N1CCC=C(c2ccc3ncnc(Nc4ccc(Cl)c(Cl)c4F)c3c2)C1 equals 200 to 1000 nM

The recorded EC50 for entry C=CC(=O)N1CCC(Oc2cc3c(Nc4cnc5ccccc5c4)ncnc3cc2OC)CC1 equals 200 to 1000 nM

The recorded EC50 for entry C=CC(=O)N1CCC(Oc2cc3c(NCc4ccc(Cl)cc4Cl)ncnc3cc2OC)CC1 equals > 1000 nM
